# assay.text: Leishmania major promastigote growth inhibition, primary screen (AID 1063);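 also: promastigotes grown with compound for 44 hours at 28 °C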
# conditions.used: Leishmania major promastigotes, resazurin fluorescence viability; at 10 µM; stronger effect = higher value
In all, about 200,000 compounds went through this assay and about 18,000 (9%) were called active. This is one part of a sample in which actives are shown more often than they occur.
endpoint.name: inhibition (%)
Give bare numbers, in %.

Please state, for each entry, its recorded inhibition.
1. NS(=O)(=O)c1ccc(CNC(=O)c2ccc(Cl)cc2[N+](=O)[O-])cc1
2. CCn1c(CSCc2c(Cl)cccc2Cl)n[nH]c1=S
3. CC(=O)Nc1ccc(OCC(=O)NCc2ccc(C)cc2)cc1
4. O=C(/C=C/c1ccc(OCc2c(F)cccc2Cl)cc1)N1CCOCC1
5. O=c1cc(CO)oc(CN2CCC(Cc3ccccc3)CC2)c1O
6. CCN(CC)CCCSc1nc2ccccc2s1
7. OC(CN=c1sc2ccccc2n1CC(O)COc1ccccc1)COc1ccccc1 (stereo unspecified)
8. CCc1nc2ccccc2c(C(=O)NCc2ccc(OC)cc2)c1C

1: 52.1; 2: 81.2; 3: -6.13; 4: 35.5; 5: -2.15; 6: 70.2; 7: 63.1; 8: -2.62
